Target: TRPV4 (Homo sapiens, UniProt Q9HBA0)
Construct: endogenous in cells
Sequence (Q9HBA0 whole entry): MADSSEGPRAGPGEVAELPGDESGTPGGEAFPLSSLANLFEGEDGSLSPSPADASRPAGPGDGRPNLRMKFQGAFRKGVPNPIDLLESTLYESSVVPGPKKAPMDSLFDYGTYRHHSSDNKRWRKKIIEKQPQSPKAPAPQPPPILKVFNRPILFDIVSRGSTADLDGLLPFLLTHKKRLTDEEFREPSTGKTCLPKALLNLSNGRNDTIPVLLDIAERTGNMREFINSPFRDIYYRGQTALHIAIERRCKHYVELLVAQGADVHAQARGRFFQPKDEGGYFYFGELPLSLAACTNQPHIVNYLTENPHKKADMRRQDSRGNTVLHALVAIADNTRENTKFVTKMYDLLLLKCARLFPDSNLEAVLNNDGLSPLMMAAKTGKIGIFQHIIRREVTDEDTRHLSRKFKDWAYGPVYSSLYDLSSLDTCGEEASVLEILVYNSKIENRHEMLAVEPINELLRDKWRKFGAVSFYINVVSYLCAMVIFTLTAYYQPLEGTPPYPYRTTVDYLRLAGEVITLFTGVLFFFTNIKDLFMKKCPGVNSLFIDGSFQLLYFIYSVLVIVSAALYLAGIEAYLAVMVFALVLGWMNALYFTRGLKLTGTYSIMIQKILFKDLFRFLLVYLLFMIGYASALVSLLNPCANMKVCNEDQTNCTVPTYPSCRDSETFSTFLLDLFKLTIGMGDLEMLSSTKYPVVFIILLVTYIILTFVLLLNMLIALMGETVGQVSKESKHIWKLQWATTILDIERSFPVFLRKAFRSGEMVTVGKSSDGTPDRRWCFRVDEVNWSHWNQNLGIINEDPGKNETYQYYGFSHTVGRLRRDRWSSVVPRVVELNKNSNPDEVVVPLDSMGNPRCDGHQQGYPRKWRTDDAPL
Assay: FLIPR calcium dye assay in MDA-MB-468 breast cancer cells
Format: cell-based
Conditions: MDA-MB-468 cells, fluo-4 with Brilliant Black BN 1 mM; read-out: EC50 (increase in intracellular calcium)
parameter: pEC50
# pEC50 is unitless: minus log10 of the molar concentration; print number only

get_value(item= CC(C)C[C@H](NC(=O)c1cc2ccccc2s1)C(=O)N1CCN(C(=O)[C@H](CO)NS(=O)(=O)c2ccc(Cl)cc2Cl)CC1 [GSK1016790A] , readout=pEC50) returns 7.14

----------
Test system: NaV1.1–1.8
Assay: no-wash sodium influx assay, summary over subtypes
Format: cell-based, human
Details: ANG-2 + Ponceau 4R 1 mM; stimulation with veratridine (NaV1.1–1.7) or deltamethrin (NaV1.8); read-out: IC50 range over NaV1.1–1.8
pIC50: −log10 of the molar value.
parameter: pIC50

get_value(item= `CCCCNc1ccc(C(=O)OCCN(C)C)cc1` , readout=pIC50) returns 4.18 to 5.22
